Assay Remarks: Meropenem concentration in stool of mice given meropenem in drinking water
Assay type: in vivo
Cond: mouse, oral; 0.625 g/L in drinking water; normal SPF mice; stool 48 hours after starting; median±SE; read-out: meropenem concentration in fecal samples
Parameter: concentration at 48 h (ng/g)

- C[C@@H](O)[C@H]1C(=O)N2C(C(=O)O)=C(S[C@@H]3CN[C@H](C(=O)N(C)C)C3)[C@H](C)[C@H]12: 110

Hello, the source for this data is patent US20240216410A1, in case you need it.
